Below, each of the sequences is paired with its reported relative integration efficiency (log2) value.
# Test system: VchCAST RNA-guided transposition machinery (E. coli BL21(DE3) host, lacZ target)
# procedure text: relative integration efficiency (T-RL orientation) vs wild-type transposon end (log2 (normalized fold change)); transposon end mutated: right end (5 bp flank + 75 bp right end); higher = more efficient transposition

# macromolecule sequence, relative integration efficiency (log2)
rows = [
    ("ACATTTGTTGATACAACCATAAAAGGATAATTACACCCATCAATTGATAATTATCACACCCAATTTAACTATAACGCTCTGATCATAGTCAGACCAACATTGCTACGACCCGTATTCGCACCGACAC", -2.32),
    ("ACATTTGTTGATACAACCATAAAATGATAATTAATAATTACACCCATAAATTGATAATTATCACACCCATAAATTGATATTGCCTCTGATCATAGTCAGACCAACATTGCTACGACCCGTATTCGCA", -3.12),
    ("ACATTTGTTGATACAACCATAAAATGATAATTACACCCATAAATTGATAATTATCACACCCATAAATTGATATTGCCTCTTCATGGTCTAAACTTCAGTCCTGGGCATCAATTTTCAGCACCGACAC", 0.135),
    ("ACATTTGTTGATACAACCATAAAATGAGCCGGCACAAACGCCCGGTCGCCGGCGACACAAACGCCCGGTCGCGGTAAGAGGATCATAGTCAGACCAACATTGCTACGACCCGTATTCGCACCGACAC", -3.42),
    ("ACATTTGTCGATCCAACCATAAAATGATAATTACACCCATAAATTCATCATTATCACACCCAATTTAACTATAACGCTCTGATCATAGTCAGACCAACATTGCTACGACCCGTATTCGCACCGACAC", -2.47),
]
